target: SARS-COV-2 RBD extracellular domain expressed with a C-terminal mouse IgG2a Fc (SARS-CoV-2); assay: Biacore SPR, mAb captured on anti-hFc, 37 C
measured-attribute: kon (M⁻¹ s⁻¹)
Response body: numeric value in M⁻¹ s⁻¹, unit text excluded.

Solved cases below.
mAb15151 (antibody, V domains shown) VH: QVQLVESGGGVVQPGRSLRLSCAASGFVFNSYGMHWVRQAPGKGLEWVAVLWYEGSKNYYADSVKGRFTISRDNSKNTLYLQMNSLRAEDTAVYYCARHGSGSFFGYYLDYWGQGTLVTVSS VL: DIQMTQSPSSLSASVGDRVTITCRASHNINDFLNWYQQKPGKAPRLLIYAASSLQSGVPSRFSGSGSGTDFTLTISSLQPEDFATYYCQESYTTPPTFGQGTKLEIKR	3.7e+06
mAb14232 (antibody, V domains shown) VH: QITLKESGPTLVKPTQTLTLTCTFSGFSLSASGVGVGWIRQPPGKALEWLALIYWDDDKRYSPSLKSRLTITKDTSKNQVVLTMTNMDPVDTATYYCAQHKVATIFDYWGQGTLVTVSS VL: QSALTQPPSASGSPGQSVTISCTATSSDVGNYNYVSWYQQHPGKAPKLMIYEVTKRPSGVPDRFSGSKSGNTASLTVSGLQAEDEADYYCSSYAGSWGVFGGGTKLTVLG	2.1e+06

## Task Please indicate kon recorded for mAb14282 (antibody, V domains shown) VH: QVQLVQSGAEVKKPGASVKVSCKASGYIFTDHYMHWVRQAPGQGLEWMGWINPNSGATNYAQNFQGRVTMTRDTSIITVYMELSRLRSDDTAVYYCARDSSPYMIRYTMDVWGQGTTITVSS VL: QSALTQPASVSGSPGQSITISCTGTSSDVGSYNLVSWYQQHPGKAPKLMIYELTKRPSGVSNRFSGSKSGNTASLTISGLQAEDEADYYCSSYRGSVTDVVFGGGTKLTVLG
## Result 2.21e+06
